Ref: patent US20190110476A1

Experiment: Measurement of LogP values by HPLC on reversed phase columns (EEC directive 79/831 Annex V.A8)
Format: physicochemical
// values below are reported LogP [a]

compound | LogP [a]
CCCS(CC)=Nc1nsc(C(=O)NCc2cc(F)c(F)cc2F)c1F (stereo not shown) | 2.10^[a]

Field LogP [a] (entry CCOC(=O)c1snc(N(Cc2ccccc2)Cc2ccccc2)c1-c1ccc(F)cc1 ) reads 6.11^[a]

Kindly note the recorded LogP [a] for CC1(C)C2CCC(CNC(=O)c3snc(Cl)c3Cl)C1C2 (stereo not shown) , which is 5.13

Value of measured LogP [a] for the entry COc1ccc(CNc2nsc(C(=O)OC(C)(C)C)c2Cl)cc1 : 4.74^[a]

// O=C(NC1CCCc2ccccc21)c1snc(Cl)c1Cl (stereo not shown) : LogP [a] value = 4.07

Noted for CS(C)=Nc1nsc(C(=O)NCc2ccc(F)cc2F)c1Cl : its LogP [a] reads 1.38^[a]

Record O=C(NCc1ccc(F)c(F)c1F)c1snc(N=S2CCCC2)c1Cl , field LogP [a]: 1.83^[a]

###

Experiment: Measurement of LogP values by HPLC on reversed phase columns (EEC directive 79/831 Annex V.A8)
Format: physicochemical
measurementLabel: LogP [a]

In the examples that follow, each entry is paired with its recorded LogP [a].
compound | measurementLabel | measuredValue
Nc1nsc(C(=O)N2CCCc3ccc(C(F)(F)F)cc32)c1Cl [II-018] | LogP [a] | 2.78
O=C(NCc1ccccc1F)c1snc(Cl)c1Cl [E-II-008] | LogP [a] | 3.23^[a]
C[C@H](NC(=O)c1snc(N=CN(C)C)c1Cl)C1CCCCC1 [II-025] | LogP [a] | 3.13^[a]
COc1ccc(CNc2nscc2Cl)cc1 [Z-A-005] | LogP [a] | 3.00^[a]
COc1ccc(CNc2nsc(C(=O)N3CCCc4ccc(C(F)(F)F)cc43)c2Cl)cc1 [II-062] | LogP [a] | 4.37
CS(C)=Nc1nsc(C(=O)NCC2CCCO2)c1F (stereo not drawn) [II-070] | LogP [a] | 0.44^[a]
O=C(NC1CCCCC1)c1snc(N=C(c2ccccc2)c2ccccc2)c1Cl [II-001] | LogP [a] | 5.13^[a]
O=C(NCc1ccccc1F)c1snc(N(S(=O)(=O)c2ccccc2)S(=O)(=O)c2ccccc2)c1Cl [II-012] | LogP [a] | 4.15^[a]
O=C(c1snc(Cl)c1Cl)N(Cc1ccc(F)cc1F)C1CC1 [E-II-014] | LogP [a] | 4.01^[a]
O=C(NCC1CCCCC1)c1snc(N=S(c2ccccc2)c2ccccc2)c1Cl [II-092] | LogP [a] | 4.77^[a]

Input COc1ccc(CNc2nsc(C(=O)O)c2Cl)cc1 [E-VIII-002] . Output LogP [a]: 2.21^[a]

The measured LogP [a] associated with O=C(NCCc1ccccc1)c1snc(N=C(c2ccccc2)c2ccccc2)c1Cl [II-095] reads 4.69^[a]

Lab note: O=C(NC1CCCC2CCCCC21)c1snc(Cl)c1Cl (stereo not drawn) [E-II-026] gave LogP [a] of 5.43^[a]

For record CCOC(=O)c1snc(N(Cc2ccccc2)Cc2ccccc2)c1Cl [E-VII-013] the listed LogP [a] is 5.73^[a]

// LogP [a] value for COc1ccc(CNc2nsc(C(=O)N3CCCC3)c2Cl)cc1 [II-102] : 2.72

The measured LogP [a] associated with COc1ccc(CNc2nsc(C(=O)N3CCCc4ccccc43)c2Cl)cc1 [II-097] reads 3.84^[a]

Record CS(C)=Nc1nsc(C(=O)NCc2c(F)cc(F)cc2F)c1F [II-079] , field LogP [a]: 1.40^[a]

Value of LogP [a] reported for the compound O=C(NCC1CCOCC1)c1snc(Cl)c1Cl [E-II-004] is 2.05^[a]

Data point: O=C(NCc1c(F)cc(F)cc1F)c1snc(N=S2CCCC2)c1Cl [II-044] ; LogP [a] = 1.66^[a]

get_value(item= COc1ccc(CNc2nsc(C(=O)N3CCCCC3)c2Cl)cc1 [II-108] , readout=LogP [a]) returns 3.22

Just so you know, measured LogP [a] for O=C(NC1CCCC2CCCCC21)c1snc(Cl)c1Cl (stereo not drawn) [E-II-025] came out at 5.27^[a]

###

Assay: Measurement of LogP values by HPLC on reversed phase columns (EEC directive 79/831 Annex V.A8)
Format: physicochemical
Marks after values point to notes of the source that are not given here.
measurementLabel: LogP

molecule | LogP
Cc1cccc(NC(=O)c2snc(N)c2Cl)c1 | 2.28[a]
N#Cc1ccc(CNC(=O)c2snc(NC(=O)C(F)F)c2Cl)cc1 | 1.68[a]
Nc1nsc(C(=O)NCC2CCCCC2)c1C(F)F | 2.66[a]
C=CCNc1nsc(C(=O)N[C@@H](C)C2CCCCC2)c1Cl | 4.02[a]
COc1ccc(CNc2nsc(C(=O)N(Cc3cc(C)c(C)cc3C)C3CC3)c2Cl)cc1 | 5.11[a]

Lab book: LogP of COc1ccc(CNc2nsc(C(=O)NCc3cccc(Cl)c3C)c2Cl)cc1 noted as 4.20[a]

Just so you know, measured LogP for CC(=O)N(C(C)=O)c1nsc(C(=O)NCc2ccccc2F)c1Cl came out at 2.64[a]

LogP in this record for C=CCONC(=O)c1snc(NCc2ccc(OC)cc2)c1Cl : 2.62[a]

Quick note, LogP for Nc1nsc(C(=O)NCc2cccc(I)c2)c1Cl landed at 2.51[a]

Looking up N#Cc1cccc(CNC(=O)c2snc(N)c2Cl)c1 , I see its LogP listed as 1.41[a]

Input Nc1nsc(C(=O)Nc2cc(F)cc(F)c2)c1Cl . Output LogP: 2.54[a]

Entry under test: COc1ccc(CN(C)c2nsc(C(=O)NCc3ccccc3F)c2Cl)cc1 . Its LogP was 4.21[a]

Entry Nc1nsc(C(=O)NCC2CCCC(C(F)(F)F)C2)c1Cl (stereo not shown) , LogP reported as 2.66[a]

###

Experiment: Measurement of LogP values by HPLC on reversed phase columns (EEC directive 79/831 Annex V.A8)
Format: physicochemical
Description: The abbreviations and numerations of the substituent positions used in the context of the present invention and in the following Tables are explained in detail in the section Examples hereinafter. Also, the LogP values indicated in the following Tables are explained in detail in the section Examples hereinafter. […] Lambda-max-values were determined using UV-spectra from 200 nm to 400 nm and the peak values of the chromatographic signals
Marks after values point to notes of the source that are not given here.
measurementLabel: LogP

As a guide, the following entries are already answered.
molecule | measuredValue
COc1ccc(CNc2nsc(C(=O)NCCc3ccc(Cl)cc3)c2Cl)cc1 [I-962] | 4.08[a]
COc1ccc(CNc2nsc(C(=O)NC(C)(C)c3ccon3)c2Cl)cc1 [I-1329] | 3.04[a]
COc1ccc(CNc2nsc(C(=O)NCc3ncc(C(F)(F)F)cc3Cl)c2Cl)cc1 [I-268] | 4.29[a]
CC1(C)CC1N(Cc1ccc(Cl)cc1Cl)C(=O)c1cc(N)ns1 (centres unmarked) [I-969] | 3.48[a]

For CCCC(=O)Nc1nsc(C(=O)NCC2CCCCC2)c1Cl [I-170] the molecule record lists LogP as 2.84[a]

###

Assay: Measurement of LogP values by HPLC on reversed phase columns (EEC directive 79/831 Annex V.A8)
Format: physicochemical
Marks after values point to notes of the source that are not given here.
Listing: LogP of selected compounds

Take a look at these entries with their results.
compound | LogP
Nc1nsc(C(=O)NCc2ccccc2C(F)F)c1Cl | 2.01[a]
CCn1cc(CNC(=O)c2snc(NCc3ccc(OC)cc3)c2Cl)cn1 | 2.48[a]

Consider the record given below.
Reported LogP of COc1ccc(CNc2nsc(C(=O)N[C@@H]3CCCC[C@H]3C)c2Cl)cc1 (relative stereo) : 4.39[a]

###

Each entry below lists one item and its recorded LogP value.
Test: Measurement of LogP values by HPLC on reversed phase columns (EEC directive 79/831 Annex V.A8)
Assay type: physicochemical
Marks after values point to notes of the source that are not given here.

Below, 5 molecules whose answers are already recorded.
molecule | LogP
Cc1ccc(CNC(=O)c2snc(N)c2C)c(F)c1 [I-145] | 1.81[a]
Nc1nsc(C(=O)NCC2(F)CCCC2)c1Br [I-829] | 1.83[a]
COc1c(N)nsc1C(=O)NCC1CCCC1 [I-736] | 1.87[a]
COc1ccc(CNc2nsc(C(=O)NCc3cnc(Cl)cn3)c2Cl)cc1 [I-1309] | 2.98[a]
COc1ccc(CNc2nsc(C(=O)NC3CC4CCC3(C)C4(C)C)c2Cl)cc1 (stereo not drawn) [I-572] | 5.02[a];

N#Cc1ccc(CNC(=O)c2snc(N)c2Cl)cc1 [I-783] has a reported LogP of 1.44[a]

Reported LogP for COc1ccc(CNc2nsc(C(=O)NCCCn3ccnc3C)c2Cl)cc1 [I-1263] was 1.44[a]

Kindly note the recorded LogP for Cc1nn(C)cc1CNC(=O)c1snc(N)c1Cl [I-034] , which is 0.76[a]

// LogP value for CCC(=O)Nc1nsc(C(=O)NC(C)C2CCCCC2)c1Cl (stereo not drawn) [I-601] : 2.82[a]

Query COc1ccc(CNc2nsc(C(=O)NCC3CC=CCC3)c2Cl)cc1 (stereo not drawn) [I-078] yields LogP of 3.90[a]

COc1ccc(CNc2nsc(C(=O)NC(C#N)c3cccc(Cl)c3Cl)c2Cl)cc1 (stereo not drawn) [I-1335] has a reported LogP of 4.05[a]
